Tested on: Fibroblast
Assay: Multiplex assay against human fibroblast
Format: toxicity, cell-based
Settings: 12 h, 1 µM, compound concentration 1 uM, replicate 1
METRIC_NAME: Population Healthy Nuclei (%)
Value expressed in %; do not type the unit.

Please report the recorded Population Healthy Nuclei (%) for `CC(/C=C1\SC(=S)N(CCCC(=O)Nc2ccc(C(=O)O)c(O)c2)C1=O)=C\c1ccccc1` .
71

Please report the recorded Population Healthy Nuclei (%) for `CN[C@@H](C)C(=O)N[C@H](C(=O)N1CCC[C@H]1C(=O)Nc1snnc1-c1ccccc1)C1CCCCC1` .
68

Please report the recorded Population Healthy Nuclei (%) for `CCCOc1ccc2[nH]cc(C3=CCNCC3)c2n1.Cl` .
71

Please report the recorded Population Healthy Nuclei (%) for `CN(C)C(=O)Cn1cc(-c2ccc(-c3cncc4ccccc34)cc2)cn1` .
72

# context switch: different compound, same Population Healthy Nuclei (%)
Please report the recorded Population Healthy Nuclei (%) for `COc1ccccc1N1CCN(C[C@@H](C(=O)NC(C)(C)C)c2ccccc2)CC1.Cl.Cl` .
70
